Data credit: the antibiotic and cytotoxicity screens of Wong et al. (2023)

tested on: HSkMC; test: cytotoxicity call (relative viability < 0.9); settings: 10 µM
Out of some 39,000 compounds screened, about 1,500 (3.8%) were called active. Only a selection was taken, and actives are over-represented in it overall.
Outcomes: Y for active, N for inactive

smiles_string=C[C@@H]1CCCCO[C@@H](CN(C)C(=O)Nc2ccccc2)[C@H](C)CN([C@H](C)CO)C(=O)c2cc(NC(=O)Nc3ccccc3)ccc2O1 class_assignment=N
smiles_string=COc1cccc(S(=O)(=O)N(C)C[C@H]2Oc3ncc(Br)cc3C(=O)N([C@H](C)CO)C[C@H]2C)c1 class_assignment=N
smiles_string=O[C@H]1[C@H](O)[C@@H](O)[C@H](O)[C@H](O)[C@H]1O class_assignment=N
smiles_string=O=C(N[C@H](c1ccc(F)cc1)c1ccc2ccccc2n1)C1CCN(Cc2cccc(C(F)(F)F)c2)CC1 class_assignment=Y
smiles_string=C[C@@H]1CCCCO[C@@H](CN(C)C(=O)NC2CCCCC2)[C@H](C)CN([C@@H](C)CO)C(=O)c2cc(NS(=O)(=O)c3ccc(F)cc3)ccc2O1 class_assignment=N
smiles_string=C[C@H](CO)N1C[C@H](C)[C@H](CN(C)C(=O)Nc2ccc(F)cc2)Oc2ccc(NC(=O)CCCCCC(=O)Nc3ccccc3N)cc2C1=O class_assignment=N
smiles_string=Cn1cc(CN2CCC(C(=O)N[C@@H](c3ccc(F)cc3)c3ccc4ccccc4n3)CC2)c2ccccc21 class_assignment=Y
smiles_string=C[C@@H]1CCCCO[C@@H](CN(C)CC2CC2)[C@H](C)CN([C@H](C)CO)C(=O)c2cc(NC(=O)Cc3ccccc3)ccc2O1 class_assignment=N
smiles_string=O=C(N[C@H](c1ccc(F)cc1)c1ccc2ccccc2n1)C1CCN(Cc2ccc3ccccc3n2)CC1 class_assignment=N
smiles_string=COc1cc(CN2CCC(C(=O)N[C@@H](c3ccc(F)cc3)c3ccc4ccccc4n3)CC2)cc(OC)c1 class_assignment=N
smiles_string=C[C@@H]1CCCCO[C@@H](CN(C)CC2CCCCC2)[C@@H](C)CN([C@@H](C)CO)C(=O)c2cc(NC(=O)CCCN(C)C)ccc2O1 class_assignment=N
smiles_string=C[C@@H]1CN([C@@H](C)CO)C(=O)c2cc(NC(=O)CCC(F)(F)F)ccc2O[C@@H](C)CCCCO[C@@H]1CN(C)C(=O)C1CCCCC1 class_assignment=N
smiles_string=C[C@H](CO)N1C[C@H](C)[C@H](CN(C)Cc2ccc(C(=O)O)cc2)Oc2ccc(NC(=O)c3ccncc3)cc2C1=O class_assignment=N
smiles_string=CN(C)CCO[C@@H]1CC[C@@H]2[C@H]1OCCN2S(C)(=O)=O class_assignment=N
smiles_string=CN(C)C(=O)c1cccc(-c2cccc(-c3nc(C(=O)NC4CCCCC4)cc4c3[C@@H](CCO)N([S@@](=O)C(C)(C)C)C4)c2)c1 class_assignment=Y

* * *

system: HSkMC; assay: cytotoxicity call (relative viability < 0.9); conditions: 10 µM
In all, about 39,000 compounds went through this assay and about 1,500 (3.8%) were called active. For the sample, actives were picked, then their nearest neighbours and some compounds at random.
Labels: active, inactive

smiles_string=C[C@H]1CCCCO[C@H](CN(C)Cc2ccncc2)[C@@H](C)CN([C@@H](C)CO)C(=O)c2cc(NS(=O)(=O)c3ccc(Cl)cc3)ccc2O1 class_assignment=inactive
smiles_string=C[n+]1cc2c3c(ccc2c2ccc4cc5c(cc4c21)OCO5)OCO3.[Cl-] class_assignment=active
smiles_string=COc1ccc(S(=O)(=O)Nc2ccc3c(c2)CC(=O)N([C@@H](C)CO)C[C@H](C)[C@@H](CN(C)Cc2ccc(Oc4ccccc4)cc2)O3)cc1 class_assignment=active
smiles_string=COc1ccc(S(=O)(=O)Nc2ccc3c(c2)CC(=O)N([C@H](C)CO)C[C@@H](C)[C@@H](CN(C)Cc2ccc(Oc4ccccc4)cc2)O3)cc1 class_assignment=active

* * *

system: HSkMC; experiment: cytotoxicity call (relative viability < 0.9); conditions: 10 µM
Out of some 39,000 compounds screened, about 1,500 (3.8%) were called active. The sample holds actives, similar compounds and a random draw of the others, so the mix is not that of the screen.
PROPERTY: cytotoxicity call

smiles_string=C[C@H](CO)N1C[C@H](C)[C@H](CN(C)CC2CCCCC2)OCCCC[C@H](C)Oc2ccc(NS(=O)(=O)c3ccc(Cl)cc3)cc2C1=O result=inactive
smiles_string=COc1ccc(CN(C)C[C@@H]2OCCCC[C@@H](C)Oc3ccc(NC(=O)Nc4ccccc4)cc3C(=O)N([C@H](C)CO)C[C@@H]2C)cc1 result=inactive
smiles_string=C[C@@H]1CCCCO[C@@H](CN(C)C(=O)c2ccccc2)[C@H](C)CN([C@H](C)CO)C(=O)c2cc(NC(=O)Nc3cccc4ccccc34)ccc2O1 result=inactive
smiles_string=C[C@H](CO)N1C[C@H](C)[C@H](CN(C)C(=O)Nc2ccc(C(F)(F)F)cc2)OCCCC[C@H](C)Oc2ccc(NS(=O)(=O)c3cn(C)cn3)cc2C1=O result=inactive
smiles_string=CO[C@H]1CN(C)C(=O)c2cc(NS(=O)(=O)c3cn(C)cn3)ccc2OC[C@@H](C)N(Cc2cccc(F)c2)C[C@H]1C result=inactive
smiles_string=C[C@@H]1CN([C@@H](C)CO)C(=O)c2cc(NC(=O)Nc3ccc(F)cc3)ccc2O[C@@H](C)CCCCO[C@@H]1CN(C)S(=O)(=O)c1ccccc1 result=inactive

* * *

test system: HSkMC; test: cytotoxicity call (relative viability < 0.9); conditions: 10 µM
Out of some 39,000 compounds screened, about 1,500 (3.8%) were called active. The full list was thinned out, with actives kept by preference.
Outcome codes: active, inactive

smiles_string=C[C@H](CO)N1C[C@H](C)[C@H](CN(C)Cc2ccc(Cl)c(Cl)c2)Oc2ccc(NS(=O)(=O)c3ccc(F)cc3)cc2C1=O class_assignment=inactive
smiles_string=COc1ccc(S(=O)(=O)Nc2ccc3c(c2)CC(=O)N([C@@H](C)CO)C[C@H](C)[C@@H](CN(C)Cc2ccc(Cl)c(Cl)c2)O3)cc1 class_assignment=inactive
smiles_string=C[C@H]1CN([C@@H](C)CO)C(=O)c2cc(NS(=O)(=O)c3ccc(F)cc3)ccc2O[C@H]1CN(C)Cc1ccc(Cl)c(Cl)c1 class_assignment=inactive
smiles_string=C[C@@H]1CN([C@H](C)CO)C(=O)c2cc(NS(=O)(=O)c3ccc(F)cc3)ccc2O[C@H]1CN(C)Cc1ccc(Cl)c(Cl)c1 class_assignment=active
smiles_string=C[C@@H]1CN([C@@H](C)CO)C(=O)c2cc(NS(=O)(=O)c3ccc(F)cc3)ccc2O[C@H]1CN(C)Cc1ccc(Cl)c(Cl)c1 class_assignment=active
smiles_string=C[C@H](CO)N1C[C@H](C)[C@@H](CN(C)Cc2ccc(F)cc2)Oc2cc(C#CC3CC3)ccc2S1(=O)=O class_assignment=inactive
smiles_string=C[C@@H]1CN([C@H](C)CO)C(=O)c2cc(NC(=O)Nc3ccc(C(F)(F)F)cc3)ccc2O[C@H]1CN(C)Cc1ccc(C(F)(F)F)cc1 class_assignment=active
smiles_string=C[C@@H]1CN([C@H](C)CO)C(=O)c2cc(NS(=O)(=O)c3ccc(F)cc3)ccc2O[C@@H]1CN(C)Cc1ccc(Cl)c(Cl)c1 class_assignment=inactive
smiles_string=C[C@@H]1CN([C@H](C)CO)S(=O)(=O)c2ccc(C#CC3CC3)cc2O[C@@H]1CN(C)Cc1ccc(F)cc1 class_assignment=inactive
smiles_string=COc1ccc(S(=O)(=O)Nc2ccc3c(c2)CC(=O)N([C@@H](C)CO)C[C@@H](C)[C@H](CN(C)Cc2ccc(Cl)c(Cl)c2)O3)cc1 class_assignment=inactive
smiles_string=O=C(C[C@@H]1CC[C@@H]2[C@H](COC[C@@H](O)CN2S(=O)(=O)c2ccccc2)O1)N[C@@H]1CCN(Cc2ccccc2)C1 class_assignment=inactive
smiles_string=COc1ccc(S(=O)(=O)Nc2ccc3c(c2)CC(=O)N([C@@H](C)CO)C[C@H](C)[C@H](CN(C)Cc2ccc(Cl)c(Cl)c2)O3)cc1 class_assignment=active
smiles_string=C[C@H]1CN([C@@H](C)CO)S(=O)(=O)c2ccc(C#CC3CC3)cc2O[C@@H]1CN(C)Cc1ccc(F)cc1 class_assignment=active
smiles_string=C[C@H]1CN([C@@H](C)CO)C(=O)c2cc(NC(=O)Nc3ccc(C(F)(F)F)cc3)ccc2O[C@@H]1CN(C)Cc1ccc(C(F)(F)F)cc1 class_assignment=active

* * *

system: HSkMC (human skeletal muscle cells); test: cytotoxicity call (relative viability < 0.9); conditions: 10 µM
Among all 39,000 compounds or so, about 1,500 (3.8%) were called active. What follows is part of a selection rich in actives, with near analogues and random picks from the rest.
Outcome codes: yes (1) (active), no (0) (inactive)

smiles_string=C[C@H](CO)N1C[C@H](C)[C@H](CN(C)Cc2ccc(C(F)(F)F)cc2)Oc2ccc(NC(=O)Nc3ccc(F)cc3)cc2CC1=O measured_target=HSkMC class_assignment="yes (1)"
smiles_string=C[C@H](CO)N1C[C@H](C)[C@H](CN(C)Cc2ccc(-c3ccccc3)cc2)Oc2c(NC(=O)Nc3ccccc3)cccc2C1=O measured_target=HSkMC class_assignment="no (0)"
smiles_string=O=C(C[C@@H]1CC[C@@H]2[C@H](COC[C@@H](O)CN2C(=O)c2ccc3c(c2)OCO3)O1)NCCN1CCCC1 measured_target=HSkMC class_assignment="no (0)"
smiles_string=C[C@H]1CN([C@@H](C)CO)C(=O)c2cccc(NC(=O)Nc3ccccc3)c2O[C@H]1CN(C)Cc1ccc(-c2ccccc2)cc1 measured_target=HSkMC class_assignment="no (0)"
smiles_string=C[C@@H]1CN([C@H](C)CO)C(=O)Cc2cc(NC(=O)Nc3ccc(F)cc3)ccc2O[C@@H]1CN(C)Cc1ccc(C(F)(F)F)cc1 measured_target=HSkMC class_assignment="yes (1)"
smiles_string=C[C@@H]1CN([C@@H](C)CO)C(=O)c2cccc(NC(=O)Nc3ccccc3)c2O[C@@H]1CN(C)Cc1ccc(-c2ccccc2)cc1 measured_target=HSkMC class_assignment="yes (1)"
smiles_string=C[C@@H]1CN([C@H](C)CO)C(=O)CCCn2cc(nn2)CO[C@@H]1CN(C)S(=O)(=O)c1cccc(C#N)c1 measured_target=HSkMC class_assignment="no (0)"
